test system: normal colon-derived epithelium monolayers; experiment: Cytokine-induced barrier injury with tofacitinib pre-treatment, Lucifer Yellow permeability assay; format: cell-based, human; settings: Homo sapiens, read-out: Permeability (EC50 of tofacitinib dose response, FIG. 7E), IFN-γ/TNF-α/IL-1α 1 ng/mL
Assay Readout: EC50 (nM)
The figure you give is taken to be in nM; do not add the unit.

Given item C[C@@H]1CCN(C(=O)CC#N)C[C@@H]1N(C)c1ncnc2[nH]ccc12 , the value recorded as its EC50 is 316
